Data origin, for the record: ChEMBL document CHEMBL1127030

system: Human immunodeficiency virus 1; assay: Inhibitory concentration was evaluated to inhibit 95% of HIV-1 spread in MT4 cells
MEASURED_PROPERTY: IC95

query: Entry under review: `O=C(N[C@@H](Cc1ccccc1)[C@@H](O)C[C@@H](Cc1ccccc1)C(=O)N[C@H]1c2ccccc2C[C@H]1O)O[C@@H]1CCOC1` . Reported IC95?
result: 0.1 µM

query: Fill in the blank: the reported IC95 of `O=C(N[C@@H](Cc1ccccc1)[C@@H](O)C[C@@H](Cc1ccccc1)C(=O)N[C@H]1c2ccccc2C[C@H]1O)OC1CCCC1` is ____.
result: 0.4 µM

query: Consider the molecule `CC(C)(C)OC(=O)N[C@@H](Cc1ccccc1)[C@@H](O)C[C@@H](Cc1ccccc1)C(=O)N[C@H]1c2ccccc2C[C@H]1O` and give its measured IC95.
result: 0.4 µM

query: Data request, read-out IC95, for `O=C(N[C@@H](Cc1ccccc1)[C@@H](O)C[C@@H](Cc1ccccc1)C(=O)N[C@H]1c2ccccc2C[C@H]1O)O[C@@H]1CCCOC1`
result: 0.025 µM

query: Request the reported IC95 associated with `O=C(N[C@@H](Cc1ccccc1)[C@@H](O)C[C@@H](Cc1ccccc1)C(=O)N[C@H]1c2ccccc2C[C@H]1O)O[C@H]1CCCOC1`
result: 0.05 µM

query: # get_value(readout='IC95', item= `O=C(N[C@@H](Cc1ccccc1)[C@@H](O)C[C@@H](Cc1ccccc1)C(=O)N[C@H]1c2ccccc2C[C@H]1O)O[C@H]1CCOC1` )
result: 0.003 µM
